Recorded pIC50 for the following compounds
Molecular target: UniProt:Q9Y5N1
Assay: H3 GTPγS assay (SPA method), histamine H3 in vitro assay
Details: GTPγ[35S] binding to membranes of cells expressing human H3; antagonist mode with R-γ-Me-Histamine at EC80 (30 nM); in one embodiment HCl salts tested; read-out: Potency (functional potency as indicated by IC50)
pIC50: −log10 of the molar value.
property-name: pIC50

N#Cc1ccc(-c2cnc3c(c2)nc2n3CCN(C3CCC3)CC2)cc1 [Compound 237]; ≥ 7.00
O=C(c1ccc2nc3n(c2c1)CCN(C1CCC1)CC3)N1CCOCC1 [Compound 84]; ≥ 6.00
c1cc(-c2ccc3c(c2)nc2n3CCN(C3CCC3)CC2)ncn1 [Compound 124]; ≥ 7.00
OCc1ccc2c(c1)nc1n2CCN(C2CCC2)CC1 [Compound 106]; ≥ 6.00
Fc1ccc(CNc2ccc3c(c2)nc2n3CCN(C3CCC3)CC2)cc1 [Compound 62]; ≥ 7.00
c1cc2c(cc1CN1CCOCC1)nc1n2CCN(C2CCC2)CC1 [Compound 74]; ≥ 8.00
CN1Cc2cc3nc4n(c3cc2C1)CCN(C1CCC1)CC4 [Compound 146]; ≥ 8.00
N#Cc1ccc2c(c1)nc1n2CCN(C2CCC2)CC1 [Compound 54]; ≥ 6.00
Cc1nc2ccccc2n1-c1ccc2c(c1)nc1n2CCN(C2CCC2)CC1 [Compound 207]; ≥ 8.00

====

Recorded IC50 for the following compounds
Target: human histamine H3 receptor (Homo sapiens, UniProt Q9Y5N1)
Sequence (Q9Y5N1 whole entry): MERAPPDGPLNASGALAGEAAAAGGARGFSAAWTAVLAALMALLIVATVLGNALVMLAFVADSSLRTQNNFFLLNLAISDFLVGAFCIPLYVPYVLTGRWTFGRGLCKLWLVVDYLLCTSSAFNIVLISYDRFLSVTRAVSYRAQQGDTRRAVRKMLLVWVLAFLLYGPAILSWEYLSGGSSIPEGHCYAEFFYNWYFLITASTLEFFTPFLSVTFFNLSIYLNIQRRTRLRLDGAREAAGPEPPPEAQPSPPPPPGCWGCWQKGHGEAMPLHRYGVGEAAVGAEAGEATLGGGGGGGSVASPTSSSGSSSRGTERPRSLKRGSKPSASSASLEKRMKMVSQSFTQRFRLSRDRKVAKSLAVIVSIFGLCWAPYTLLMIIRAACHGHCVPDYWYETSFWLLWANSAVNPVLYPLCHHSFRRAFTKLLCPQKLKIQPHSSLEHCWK
Assay: H3 GTPγS assay (SPA method), histamine H3 in vitro assay
Conditions: GTPγ[35S] binding to membranes of cells expressing human H3; antagonist mode with R-γ-Me-Histamine at EC80 (30 nM); in one embodiment HCl salts tested; read-out: Potency (functional potency as indicated by IC50)
property-name: IC50

FC1CCN(Cc2ccc3c(c2)nc2n3CCN(C3CCC3)CC2)C1 (stereo not drawn); ≤ 100 nM
COc1ccc(-c2ccc3c(c2)nc2n3CCN(C3CCC3)CC2)nn1; ≤ 100 nM
c1cc2nc3n(c2cc1-c1cn[nH]c1)CCN(C1CCC1)CC3; ≤ 1000 nM
CN(C)C(=O)c1ccc2c(c1)nc1n2CCN(C2CCC2)CC1; ≤ 1000 nM
CC(=O)N1CCCC(c2ccc3c(c2)nc2n3CCN(C3CCC3)CC2)C1 (stereo not drawn); ≤ 10 nM
O=c1[nH]c2cc(-c3ccc4c(c3)nc3n4CCN(C4CCC4)CC3)ccc2o1; ≤ 100 nM
O=C(c1ccc2c(c1)nc1n2CCN(C2CCC2)CC1)N1CCCC1; ≤ 100 nM
c1ccc2c(c1)CCN(Cc1ccc3c(c1)nc1n3CCN(C3CCC3)CC1)C2; ≤ 10 nM
Cn1cc2ccc(-c3ccc4c(c3)nc3n4CCN(C4CCC4)CC3)cc2n1; ≤ 100 nM

====

Molecular target: human histamine H3 receptor (Homo sapiens, UniProt Q9Y5N1)
Experiment: H3 GTPγS assay (SPA method), histamine H3 in vitro assay
Conditions: GTPγ[35S] binding to membranes of cells expressing human H3; antagonist mode with R-γ-Me-Histamine at EC80 (30 nM); in one embodiment HCl salts tested; read-out: Potency (functional potency as indicated by IC50)
Recorded IC50 for the following compounds
property-name: IC50

c1cn(-c2ccc3c(c2)nc2n3CCN(C3CCC3)CC2)cn1; ≤ 10 nM
c1cc2c(cc1-c1ccc3nncn3c1)nc1n2CCN(C2CCC2)CC1; ≤ 10 nM
CN1CCC(N2CCc3nc4cc(-c5ccc6[nH]ccc6c5)ccc4n3CC2)CC1; ≥ 1000 nM
FC1CCN(c2ccc3c(c2)nc2n3CCN(C3CCC3)CC2)CC1; ≤ 10 nM
Brc1ccc2c(c1)nc1n2CCN(C2CCC2)CC1; ≤ 1000 nM
CC1CCCC1N1CCc2nc3cc(-c4ccc(C#N)cc4)ccc3n2CC1 (racemic); ≤ 10 nM
Cn1cnc2cc(-c3ccc4c(c3)nc3n4CCN(C4CCC4)CC3)cnc21; ≤ 10 nM
FC1(F)CCN(Cc2ccc3c(c2)nc2n3CCN(C3CCC3)CC2)C1; ≤ 10 nM
N#Cc1ccc(-c2ccc3c(c2)nc2n3CCN(C3CCC3)CC2)cn1; ≤ 10 nM
O=C(C1CCC1)N1CCCC(c2ccc3c(c2)nc2n3CCN(C3CCC3)CC2)C1 (stereo not drawn); ≤ 10 nM
Fc1ccc2c(c1)CN(c1ccc3c(c1)nc1n3CCN(C3CCC3)CC1)CC2; ≤ 10 nM
Cc1nn(C)c(C)c1-c1ccc2c(c1)nc1n2CCN(C2CCC2)CC1; ≤ 1000 nM
c1cc2c(cc1N1CCN(C3CCCCC3)CC1)nc1n2CCN(C2CCC2)CC1; ≤ 10 nM
c1cnc(Nc2ccc3c(c2)nc2n3CCN(C3CCC3)CC2)cn1; ≤ 100 nM
c1cc2c(cc1CN1CCCC1)nc1n2CCN(C2CCC2)CC1; ≤ 10 nM
N#Cc1ccc(C(=O)N2CCN(c3ccc4c(c3)nc3n4CCN(C4CCC4)CC3)CC2)cc1; ≤ 10 nM
c1ccc(N2CCN(c3ccc4c(c3)nc3n4CCN(C4CCC4)CC3)CC2)nc1; ≤ 10 nM
c1cc2c(cc1-c1cnc3[nH]ncc3c1)nc1n2CCN(C2CCC2)CC1; ≤ 10 nM

====

Molecular target: human histamine H3 receptor (Homo sapiens)
Experiment: H3 GTPγS assay (SPA method), histamine H3 in vitro assay
Conditions: GTPγ[35S] binding to membranes of cells expressing human H3; antagonist mode with R-γ-Me-Histamine at EC80 (30 nM); in one embodiment HCl salts tested; read-out: Potency (functional potency as indicated by IC50)
Recorded IC50 for the following compounds
property-name: IC50

c1cc2nc(-c3ccc4c(c3)nc3n4CCN(C4CCC4)CC3)ccc2[nH]1; ≤ 10 nM
N#Cc1ccc(-c2ccc3c(c2)nc2n3CCN(C3CCC3)CC2)cc1F; ≤ 10 nM
COc1ccnc(OCc2ccc3c(c2)nc2n3CCN(C3CCC3)CC2)n1; ≤ 100 nM
N#Cc1ccc(CNc2ccc3c(c2)nc2n3CCN(C3CCC3)CC2)cc1; ≤ 100 nM
CC(C1CCC1)N1CCc2nc3cc(-c4ccc(CN)cc4)ccc3n2CC1 (stereo not drawn); ≤ 100 nM
O=C(c1ccc2nc3n(c2c1)CCN(C1CCC1)CC3)N1CCCC1; ≤ 1000 nM
N#Cc1ccc(CNc2ccc3nc4n(c3c2)CCN(C2CCC2)CC4)cc1; ≤ 100 nM
c1ccc(N2CCN(c3ccc4nc5n(c4c3)CCN(C3CCC3)CC5)CC2)nc1; ≤ 100 nM
c1cc2nc3n(c2cc1CN1CCOCC1)CCN(C1CCC1)CC3; ≤ 10 nM
Clc1ccc2c(c1)nc1n2CCN(Cc2cnc[nH]2)CC1; ≥ 1000 nM
Clc1ccc(-c2ccc3c(c2)nc2n3CCN(C3CCC3)CC2)cc1Cl; ≤ 100 nM
c1ccc(-c2ccc3c(c2)nc2n3CCN(C3CCC3)CC2)nc1; ≤ 100 nM
Brc1cnc2c(c1)nc1n2CCN(C2CCC2)CC1; ≥ 1000 nM
O=C(c1ccc2c(c1)nc1n2CCN(C2CCC2)CC1)N1CCOCC1; ≤ 100 nM
O=C(NCc1ccc2c(c1)nc1n2CCN(C2CCC2)CC1)OCc1ccccc1; ≤ 100 nM
O=C(c1ccc2c(c1)nc1n2CCN(C2CCC2)CC1)c1cnccn1; ≤ 100 nM
N#Cc1ccc(C(=O)N2CCc3cc4nc5n(c4cc3C2)CCN(C2CCC2)CC5)cc1; ≤ 100 nM
c1ccc2c(c1)cnn2-c1ccc2c(c1)nc1n2CCN(C2CCC2)CC1; ≤ 100 nM

====

Target: human histamine H3 receptor (Homo sapiens, UniProt Q9Y5N1)
Experiment: H3 GTPγS assay (SPA method), histamine H3 in vitro assay
Settings: GTPγ[35S] binding to membranes of cells expressing human H3; antagonist mode with R-γ-Me-Histamine at EC80 (30 nM); in one embodiment HCl salts tested; read-out: Potency (functional potency as indicated by IC50)
pIC50: −log10 of the molar value.
property-name: pIC50

CN1CCN(c2ccc3c(c2)nc2n3CCN(C3CCC3)CC2)CC1; ≥ 8.00
c1cc2c(cc1-c1ccc3c(c1)nc1n3CCN(C3CCC3)CC1)OCO2; ≥ 8.00
CC1CCC(N2CCc3nc4cc(-c5ccc(C#N)cc5)ccc4n3CC2)CC1 (mixture of isomers); ≤ 6.00
CC(C)(C)c1ccc(-c2ccc3c(c2)nc2n3CCN(C3CCC3)CC2)cc1; ≥ 8.00
O=c1[nH]c2ccccc2n1-c1ccc2c(c1)nc1n2CCN(C2CCC2)CC1; ≥ 7.00
c1coc(-c2ccc3nc4n(c3c2)CCN(C2CCC2)CC4)c1; ≥ 6.00
c1cnc(N2CCc3cc4nc5n(c4cc3C2)CCN(C2CCC2)CC5)nc1; ≥ 7.00
N#Cc1ccc(OCc2ccc3c(c2)nc2n3CCN(C3CCC3)CC2)nc1; ≥ 7.00
